The following are reported pIC50 results, target or system PI3Kγ (Homo sapiens).
As a rule, pIC50 stands for the negative log10 of the concentration, concentration in M.

Here's what some known entries look like.
N#CC1CCN(C(=O)c2cc3nc(-n4c(C(F)F)nc5ccccc54)cc(N4CCOCC4)n3n2)CC1 [Compound 51]	5.79
CC(C)(C(N)=O)N1CCN(Cc2cc3nc(-n4c(C(F)F)nc5ccccc54)cc(N4CCOCC4)n3n2)CC1 [Compound 17]	5.66
C[C@@H]1COCCN1Cc1cc2nc(-n3c(C(F)F)nc4ccccc43)cc(N3CCOCC3)n2n1 [Compound 25]	5.71
FC(F)c1nc2ccccc2n1-c1cc(N2CCOCC2)n2nc(CNC3CCOCC3)cc2n1 [Compound 27]	4.69
OCC1CCN(Cc2cc3nc(-n4c(C(F)F)nc5ccccc54)cc(N4CCOCC4)n3n2)CC1 [Compound 31]	5.08

The compound Cc1nc2ccccc2n1-c1cc(N2CCOCC2)n2nc(CN3CCN(C(C)(C)C)CC3)cc2n1 [Compound 5] , when measured on PI3Kγ (Homo sapiens), yielded pIC50 of 3.76

The compound CNC(=O)CN1CCN(Cc2cc3nc(-n4c(C(F)F)nc5ccccc54)cc(N4CCOCC4)n3n2)CC1 [Compound 36] , when measured on PI3Kγ (Homo sapiens), yielded pIC50 of 5.90
